assay: Half life in iv dosed rat; format: ADME, organism-based; conditions: in vivo
Assignment: determine reported half-life for the given compounds.
Note: unit h is implicit; provide only the numeric part.

INPUT: # half-life lookup, item COc1cncc2c1[C@]1(O)[C@H](O)[C@H](CN(C)C)[C@@H](c3ccccc3)[C@]1(c1ccc(C#N)cc1)O2 (stereo in doubt; (-)-37)
OUTPUT: 2.9

INPUT: // repeat for `COc1cncc2c1[C@]1(O)[C@H](O)[C@H](C(=O)N(C)C)[C@@H](c3ccccc3)[C@]1(c1ccc(C#N)cc1)O2` and report
OUTPUT: 2

INPUT: // repeat for COc1cc2c(c(OC)n1)[C@]1(O)[C@H](O)[C@H](CN(C)C)[C@@H](c3ccccc3)[C@]1(c1ccc(C#N)cc1)O2 [ZOTATIFIN] and report
OUTPUT: 4.4

INPUT: // repeat for `COc1nc(C#N)cc2c1[C@]1(O)[C@H](O)[C@H](CN(C)C)[C@@H](c3ccccc3)[C@]1(c1ccc(C#N)cc1)O2` and report
OUTPUT: 11
